Record: compiled pIC50 on Angiotensin-converting enzyme (Rattus norvegicus) from multiple reports.
# pIC50: negative log10 of molar concentration; output just the value

Ask | Observed pIC50 on Angiotensin-converting enzyme (Rattus norvegicus) for CC(C)(C)OC(=O)[C@@H]1CCCN1C(=O)[C@H]1CCC(C)(C)[C@@H]1SC(=O)c1ccccc1 , please.
Reply | 3.60

Ask | Value wanted: pIC50 (Angiotensin-converting enzyme (Rattus norvegicus)) of entry CC(C)[C@H](NC(=O)[C@@H](S)Cc1ccccc1)C(=O)N1CC(O)CC1C(=O)O (stereo not given in full)
Reply | 7.00

Ask | Quick check: pIC50 on Angiotensin-converting enzyme (Rattus norvegicus), item O=C(O)[C@@H]1CCCN1C(=O)C1CCCCC1S (stereo not given in full) ?
Reply | 4.95

Ask | Quick check: pIC50 on Angiotensin-converting enzyme (Rattus norvegicus), item O=C(O)CN1C(=O)[C@@H](N[C@@H](CCc2ccccc2)C(=O)O)CSc2ccccc21 ?
Reply | 8.54

====

Molecular target: Angiotensin-converting enzyme (Rattus norvegicus)
Sequence (P47820 whole entry): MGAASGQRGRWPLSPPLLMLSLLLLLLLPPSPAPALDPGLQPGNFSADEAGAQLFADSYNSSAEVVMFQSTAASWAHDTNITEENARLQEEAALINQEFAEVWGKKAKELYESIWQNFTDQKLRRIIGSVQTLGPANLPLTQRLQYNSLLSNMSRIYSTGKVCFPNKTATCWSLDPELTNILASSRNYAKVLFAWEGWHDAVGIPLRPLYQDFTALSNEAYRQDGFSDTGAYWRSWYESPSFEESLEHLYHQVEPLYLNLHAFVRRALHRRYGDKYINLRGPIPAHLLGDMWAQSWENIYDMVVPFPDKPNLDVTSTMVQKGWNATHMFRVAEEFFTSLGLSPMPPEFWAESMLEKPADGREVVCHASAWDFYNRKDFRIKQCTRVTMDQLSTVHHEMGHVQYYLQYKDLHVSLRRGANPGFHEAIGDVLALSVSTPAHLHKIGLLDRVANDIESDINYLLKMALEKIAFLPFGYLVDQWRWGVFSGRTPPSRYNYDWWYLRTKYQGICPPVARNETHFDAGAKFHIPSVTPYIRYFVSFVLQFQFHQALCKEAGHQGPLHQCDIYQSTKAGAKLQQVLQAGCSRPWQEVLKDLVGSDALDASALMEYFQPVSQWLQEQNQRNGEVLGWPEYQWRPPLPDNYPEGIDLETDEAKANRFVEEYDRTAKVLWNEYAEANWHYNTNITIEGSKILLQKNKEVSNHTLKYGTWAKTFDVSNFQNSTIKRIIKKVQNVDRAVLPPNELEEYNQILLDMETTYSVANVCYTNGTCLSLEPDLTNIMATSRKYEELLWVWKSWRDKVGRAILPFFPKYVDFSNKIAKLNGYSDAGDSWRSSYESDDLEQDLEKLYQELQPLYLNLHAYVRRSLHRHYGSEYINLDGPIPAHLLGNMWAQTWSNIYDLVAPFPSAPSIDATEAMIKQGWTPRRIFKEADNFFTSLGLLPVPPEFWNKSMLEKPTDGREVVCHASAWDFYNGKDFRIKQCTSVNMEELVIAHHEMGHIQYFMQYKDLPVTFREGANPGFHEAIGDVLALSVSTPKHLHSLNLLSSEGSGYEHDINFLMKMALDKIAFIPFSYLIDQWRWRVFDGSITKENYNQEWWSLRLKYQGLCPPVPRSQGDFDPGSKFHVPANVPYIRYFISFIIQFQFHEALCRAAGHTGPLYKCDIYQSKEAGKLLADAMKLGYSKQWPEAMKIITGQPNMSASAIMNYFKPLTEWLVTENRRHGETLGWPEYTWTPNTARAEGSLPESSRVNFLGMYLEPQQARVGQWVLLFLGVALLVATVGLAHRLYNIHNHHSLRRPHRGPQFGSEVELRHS
Dear all, I have gathered published IC50 values for Angiotensin-converting enzyme (Rattus norvegicus); the list follows.

Ask | Please provide the recorded IC50 for C[C@H](CS)C(=O)N1C[C@@H](c2ccccc2)C[C@H]1C(=O)O , tested on Angiotensin-converting enzyme (Rattus norvegicus).
Reply | 0.03 µM

Ask | Param readout= IC50; system= Angiotensin-converting enzyme (Rattus norvegicus); entry= C=C(C)C(=O)N1c2ccccc2C[C@H]1C(=O)O ; returns value.
Reply | > 100 µM

Ask | Lookup: IC50 / Angiotensin-converting enzyme (Rattus norvegicus) / C[C@H](NC(=O)[C@@H](S)Cc1ccccc1)C(=O)N1CCC[C@H]1C(=O)O
Reply | 0.0003 µM

Ask | Given the entry CC(OCc1ccccc1)[C@H](NC(=O)[C@@H](S)Cc1ccccc1)C(=O)N[C@@H](Cc1ccc(O)cc1)C(=O)O (stereo partly drawn) , what IC50 was observed with Angiotensin-converting enzyme (Rattus norvegicus)?
Reply | 0.034 µM

Ask | Look up IC50 with Angiotensin-converting enzyme (Rattus norvegicus) for this molecule: O=c1c(O[C@@H]2O[C@H](CO)[C@@H](O)[C@H](O)[C@H]2O)c(-c2ccc(O)cc2)oc2cc(O)cc(O)c12
Reply | 401 µM

Ask | Under Angiotensin-converting enzyme (Rattus norvegicus): IC50 value of CC(C)(C)OC(=O)[C@@H]1CCCN1C(=O)[C@@H]1CCC[C@H]1SC(=O)c1ccccc1 ?
Reply | 250 µM

Ask | What is its IC50 for Angiotensin-converting enzyme (Rattus norvegicus)? Entry: Cc1ccccc1[C@H]1CC[C@@H](C(=O)O)N1C(=O)CNC(=O)[C@@H](S)Cc1ccccc1
Reply | 0.0031 µM

Ask | Observed IC50 on Angiotensin-converting enzyme (Rattus norvegicus) for O=C(O[C@H]1[C@H](Oc2c(-c3ccc(O)cc3)oc3cc(O)cc(O)c3c2=O)O[C@H](CO)[C@@H](O)[C@@H]1O)c1cc(O)c(O)c(O)c1 , please.
Reply | 466 µM

Ask | Requested read-out IC50, target or system Angiotensin-converting enzyme (Rattus norvegicus), entry CC1(C)CC[C@@H](C(=O)N2CCC[C@H]2C(=O)O)[C@@H]1S
Reply | 215 µM

Ask | // fetch Angiotensin-converting enzyme (Rattus norvegicus) IC50 for C[C@H](N[C@@H](CCc1ccccc1)C(=O)O)C(=O)N1C[C@@H](Sc2ccccc2)C[C@H]1C(=O)O
Reply | 0.002 µM

Ask | Find the measured IC50: item O=C(O)CN1C(=O)[C@@H](N[C@H](CCc2ccccc2)C(=O)O)CSc2ccccc21 , target or system Angiotensin-converting enzyme (Rattus norvegicus).
Reply | 0.24 µM

Ask | What value of IC50 on Angiotensin-converting enzyme (Rattus norvegicus) does C=C(C)C(=O)N1c2ccccc2CC1C(=O)O (stereo not drawn) have?
Reply | > 1000 µM

Ask | Field: IC50 (Angiotensin-converting enzyme (Rattus norvegicus)). Entry: CC[C@H](C)[C@H](NC(=O)[C@@H](S)c1ccccc1)C(=O)N[C@@H](Cc1ccc(O)cc1)C(=O)O
Reply | 0.0035 µM

Ask | Lookup: IC50 / Angiotensin-converting enzyme (Rattus norvegicus) / CC(C)(C)OC(=O)[C@@H]1CCCN1C(=O)[C@@H]1CCC[C@@H]1SC(=O)c1ccccc1
Reply | 250 µM

Ask | Write down the reported IC50 of CCOC(=O)C(CCc1ccccc1)NC1CSc2ccccc2N(CC(=O)O)C1=O.Cl (stereo in doubt; 14c) , test system: Angiotensin-converting enzyme (Rattus norvegicus).
Reply | 2.2 µM

Ask | Query for Angiotensin-converting enzyme (Rattus norvegicus): what IC50 does the record show for C[C@H](CS)C(=O)N1C[C@@H](Sc2ccc(F)cc2)C[C@H]1C(=O)O ?
Reply | 0.017 µM

Ask | Provide the documented IC50 with Angiotensin-converting enzyme (Rattus norvegicus) as the system for C[C@H](CS)C(=O)N1C[C@@H](Sc2ccccc2)C[C@H]1C(=O)O
Reply | 0.008 µM

Ask | Request: IC50, test system Angiotensin-converting enzyme (Rattus norvegicus), entry C=C(C)C(=O)N1c2ccccc2C[C@@H]1C(=O)O
Reply | > 1000 µM

====

Field: pIC50. System: Angiotensin-converting enzyme (Rattus norvegicus). Provenance: assorted publications.
pIC50 here is simply -log10 of the concentration when that concentration is written in mol/L.

Ask | What is its pIC50 for Angiotensin-converting enzyme (Rattus norvegicus)? Entry: O=C(O)[C@H](COCc1ccccc1)NC(=O)[C@H](Cc1ccccc1)NC(=O)[C@@H](S)Cc1ccccc1
Reply | 7.92

Ask | Given the entry O=C(O)CN1C(=O)[C@@H](NC(CCc2ccccc2)C(=O)O)C[S+]([O-])c2ccccc21 (stereo partly specified) , what pIC50 was observed with Angiotensin-converting enzyme (Rattus norvegicus)?
Reply | 8.23

Ask | Could you share what pIC50 was measured for C=C(C)[C@@H]1CC[C@]2(C(=O)N[C@H](C(=O)O)[C@@H](C)CC)CC[C@]3(C)[C@H](CC[C@@H]4[C@@]5(C)CC[C@H](O)C(C)(C)[C@@H]5CC[C@]43C)[C@@H]12 , tested on Angiotensin-converting enzyme (Rattus norvegicus)?
Reply | 8.20

Ask | GET /values?readout=pIC50&system=Angiotensin-converting enzyme (Rattus norvegicus)&item= COC1(OC)C[C@@H](C(=O)O)N(C(=O)[C@H](C)CS)C1
Reply | 8.14

Ask | Give the reported pIC50 for C[C@H](CS)C(=O)N1C[C@@H](Oc2ccc3ccccc3c2)C[C@H]1C(=O)O (system: Angiotensin-converting enzyme (Rattus norvegicus)).
Reply | 7.89

Ask | Given the entry O=C(O)[C@H](CSCc1ccccc1)NC(=O)[C@H](Cc1ccccc1)NC(=O)[C@@H](S)Cc1ccccc1 , what pIC50 was observed with Angiotensin-converting enzyme (Rattus norvegicus)?
Reply | 7.85
